# subject-of-test: T1, pig serum albumin (pig, UniProt P08835 25-607)
# T1 construct: Bought protein, immobilized on a CM5 chip by amine coupling; also called Pig SA
# method-summary: SPR (Biacore 8K), albumin immobilized on CM5 chip, 25 C, 1:1 kinetic fit
parameter: kon
The reply should consist of the numeric value with the unit placed after it.

Record summary for RLN Analog 12 (other, Single-chain fusion: VHH - (G4Q)5 L1 - RLN2 B chain (desB1) - L2 of thirteen residues - RLN2 A chain (desA1-4)) EVQLLESGGGLVQPGGSLRLSCAASGRYIDETAVAWFRQAPGKGREFVAGIGGGVDITYYADSVKGRFTISRDNSKNTLYLQMNSLRPEDTAVYYCAARPGRPLITSKVADLYPYWGQGTLVTVSSGGGGQGGGGQGGGGQGGGGQGGGGQSWMEEVIKLCGRELVRAQIAICGMSTWSGGGSGGSGGSGGGALANKCCHVGCTKRSLARFC : reported kon = 1.4e+06 M⁻¹ s⁻¹

Record summary for RLN Analog 6 (other, Single-chain fusion: RLN2 B chain (desB1) - L2 - RLN2 A chain - PGPQ-repeat L1 - VHH (C-terminal)) SWMEEVIKLCGRELVRAQIAICGMSTWSGGGSGGSGGGQLYSALANKCCHVGCTKRSLARFCPGPQPGPQPGPQPGPQPGPQPGPQPGPQPGPQEVQLLESGGGLVQPGGSLRLSCAASGRYIDETAVAWFRQAPGKEREFVAGIGGGVDITYYADSVKGRFTISRDNSKNTLYLQMNSLRPEDTAVYYCAARPGRPLITSKVADLYPYWGQGTLVTVSSPP : reported kon = 410000 M⁻¹ s⁻¹

Record summary for RLN Analog 8 (other, Single-chain fusion: VHH - (PGPQ)8 L1 - RLN2 B chain (desB1) - L2 - RLN2 A chain) EVQLLESGGGLVQPGGSLRLSCAASGRYIDETAVAWFRQAPGKGREFVAGIGGGVDITYYADSVKGRFTISRDNSKNTLYLQMNSLRPEDTAVYYCAARPGRPLITSKVADLYPYWGQGTLVTVSSPGPQPGPQPGPQPGPQPGPQPGPQPGPQPGPQSWMEEVIKLCGRELVRAQIAICGMSTWSGGGSGGSGGGQLYSALANKCCHVGCTKRSLARFC : reported kon = 1.3e+06 M⁻¹ s⁻¹

Record summary for RLN Analog 11 (other, Single-chain fusion: VHH - (G4Q)5 L1 - RLN2 B chain (desB1) - L2 of thirteen residues - RLN2 A chain (desA1-4)) EVQLLESGGGLVQPGGSLRLSCAASGRYIDETAVAWFRQAPGKEREFVAGIGGGVDITYYADSVKGRFTISRDNSKNTLYLQMNSLRPEDTAVYYCAARPGRPLITSKVADLYPYWGQGTLVTVSSGGGGQGGGGQGGGGQGGGGQGGGGQSWMEEVIKLCGRELVRAQIAICGMSTWSGGGSGGSGGSGGGALANKCCHVGCTKRSLARFC : reported kon = 850000 M⁻¹ s⁻¹
